# assay text: Selectivity index, ratio of CC50 for human C8166 cells to EC50 for HIV1 3B infected in human C8166 cells
# Format: toxicity, cell-based
# condition notes: HIV-1 3B infected C8166 cells, read-out: Ratio CC50/EC50
I'd appreciate it if you could supply selectivity ratio values for the items below.
Give bare numbers.

Recorded selectivity ratio, per entry:
{"smiles str": "Cc1ccc(C(=O)c2c(OCC(=O)Nc3ccc(S(N)(=O)=O)cc3C)ccc3cc(Br)ccc23)c(C)c1", "quantitative readout": 2.6}
{"smiles str": "Cc1cc(S(N)(=O)=O)ccc1NC(=O)COc1ccc2cc(Br)ccc2c1C(=O)c1ccccc1", "quantitative readout": 6.3}
{"smiles str": "Cc1ccc(C(=O)c2c(OCC(=O)Nc3ccc(S(N)(=O)=O)cc3C)ccc3ccccc23)c(C)c1", "quantitative readout": 183}
{"smiles str": "Cc1cc(C)cc(C(=O)c2c(OCC(=O)Nc3ccc(S(N)(=O)=O)cc3C)ccc3cc(C#N)ccc23)c1", "quantitative readout": 72}
{"smiles str": "Cc1cc(S(N)(=O)=O)ccc1NC(=O)COc1ccc2ccccc2c1C(=O)c1cc(Cl)cc(C#N)c1", "quantitative readout": 10300}

Look up selectivity ratio for the entries below, preserving their order.
1. Cc1ccc(C)c(C(=O)c2c(OCC(=O)Nc3ccc(S(N)(=O)=O)cc3C)ccc3cc(Br)ccc23)c1
2. Cc1cccc(C(=O)c2c(OCC(=O)Nc3ccc(S(N)(=O)=O)cc3C)ccc3ccccc23)c1

Data returned:
1. 5.3
2. 2990

====

# assay text: Cytotoxicity against human C8166 cells by MTT colorimetric assay
# Assay type: cell-based
I'd appreciate it if you could supply CC50 values for the items below.
Give bare numbers, in µM.

{"smiles str": "Cc1ccc(C(=O)c2c(OCC(=O)Nc3ccc(S(N)(=O)=O)cc3C)ccc3ccccc23)c(C)c1", "CC50 [µM]": 25.5}

Look up CC50 for the entries below, preserving their order.
1. Cc1cccc(C(=O)c2c(OCC(=O)Nc3ccc(S(N)(=O)=O)cc3C)ccc3ccccc23)c1
2. Cc1cc(S(N)(=O)=O)ccc1NC(=O)COc1ccc2ccccc2c1C(=O)c1cc(Cl)cc(Br)c1
3. Cc1cccc(C(=O)c2c(OCC(=O)Nc3ccc(S(N)(=O)=O)cc3C)ccc3cc(Br)ccc23)c1
4. Cc1ccc(C)c(C(=O)c2c(OCC(=O)Nc3ccc(S(N)(=O)=O)cc3C)ccc3ccccc23)c1
5. Cc1cc(C)cc(C(=O)c2c(OCC(=O)Nc3ccc(S(N)(=O)=O)cc3C)ccc3ccccc23)c1

Data returned:
1. 40.4
2. 36.6
3. 6.8
4. 47.5
5. 39.1

====

# assay text: Selectivity index, ratio of CC50 for human C8166 cells to EC50 for HIV1 3B infected in human C8166 cells
# Assay type: toxicity, cell-based
# condition notes: HIV-1 3B infected C8166 cells, read-out: Ratio CC50/EC50
metric: selectivity ratio
One number for each entry.

Look up selectivity ratio for the entries below, preserving their order.
1. Cc1ccc(C(=O)c2c(OCC(=O)Nc3ccc(S(N)(=O)=O)cc3C)ccc3cc(Br)ccc23)cc1C
2. Cc1cc(S(N)(=O)=O)ccc1NC(=O)COc1ccc2ccccc2c1C(=O)c1cc(Cl)cc(Br)c1
3. Cc1cc(S(N)(=O)=O)ccc1NC(=O)COc1ccc2cc(Br)ccc2c1C(=O)c1cc(Cl)cc(Br)c1
4. Cc1cn([C@H]2C[C@H](N=[N+]=[N-])[C@@H](CO)O2)c(=O)[nH]c1=O [ZIDOVUDINE]
5. Cc1cc(C)cc(C(=O)c2c(OCC(=O)Nc3ccc(S(N)(=O)=O)cc3C)ccc3ccccc23)c1
6. Cc1cc(S(N)(=O)=O)ccc1NC(=O)COc1ccc2cc(Br)ccc2c1C(=O)c1cccc(Cl)c1
7. Cc1cc(S(N)(=O)=O)ccc1NC(=O)COc1ccc2ccccc2c1C(=O)c1cccc(Cl)c1

Data returned:
1: 2.7; 2: 1350; 3: 3.8; 4: 422000; 5: 5040; 6: 4.1; 7: 1110

====

# assay text: Cytotoxicity against human C8166 cells by MTT colorimetric assay
# Assay type: cell-based
metric: CC50 (µM)
Give bare numbers, in µM.

{"smiles str": "Cc1ccc(C(=O)c2c(OCC(=O)Nc3ccc(S(N)(=O)=O)cc3C)ccc3ccccc23)cc1C", "result unit": "µM", "CC50": 33}
{"smiles str": "Cc1cc(S(N)(=O)=O)ccc1NC(=O)COc1ccc2cc(Br)ccc2c1C(=O)c1cccc(F)c1", "result unit": "µM", "CC50": 24.5}
{"smiles str": "Cc1cc(S(N)(=O)=O)ccc1NC(=O)COc1ccc2cc(Br)ccc2c1C(=O)c1ccccc1", "result unit": "µM", "CC50": 29.2}
{"smiles str": "Cc1cc(S(N)(=O)=O)ccc1NC(=O)COc1ccc2cc(Br)ccc2c1C(=O)c1cc(Cl)cc(Br)c1", "result unit": "µM", "CC50": 28.5}
{"smiles str": "Cc1cccc(C(=O)c2c(OCC(=O)Nc3ccc(S(N)(=O)=O)cc3C)ccc3cc(C#N)ccc23)c1", "result unit": "µM", "CC50": 15.2}
{"smiles str": "Cc1cc(S(N)(=O)=O)ccc1NC(=O)COc1ccc2ccccc2c1C(=O)c1cccc(Cl)c1", "result unit": "µM", "CC50": 37.4}
{"smiles str": "Cc1cn([C@H]2C[C@H](N=[N+]=[N-])[C@@H](CO)O2)c(=O)[nH]c1=O", "result unit": "µM", "CC50": 5400}
{"smiles str": "Cc1ccc(C)c(C(=O)c2c(OCC(=O)Nc3ccc(S(N)(=O)=O)cc3C)ccc3cc(Br)ccc23)c1", "result unit": "µM", "CC50": 14}

Look up CC50 for the entries below, preserving their order.
1. Cc1cc(C)cc(C(=O)c2c(OCC(=O)Nc3ccc(S(N)(=O)=O)cc3C)ccc3cc(C#N)ccc23)c1
2. Cc1cc(S(N)(=O)=O)ccc1NC(=O)COc1ccc2ccccc2c1C(=O)c1cc(Cl)cc(C#N)c1
3. Cc1ccc(C(=O)c2c(OCC(=O)Nc3ccc(S(N)(=O)=O)cc3C)ccc3cc(Br)ccc23)cc1C
4. Cc1cc(S(N)(=O)=O)ccc1NC(=O)COc1ccc2cc(Br)ccc2c1C(=O)c1cccc(Cl)c1
5. Cc1cc(S(N)(=O)=O)ccc1NC(=O)COc1ccc2ccccc2c1C(=O)c1ccccc1
6. Cc1ccc(C(=O)c2c(OCC(=O)Nc3ccc(S(N)(=O)=O)cc3C)ccc3cc(Br)ccc23)c(C)c1

Data returned:
1. 128
2. 49.4
3. 85.2
4. 6.8
5. 33.8
6. 61.4

Data request: CC50 for Cc1cc(C)cc(C(=O)c2c(OCC(=O)Nc3ccc(S(N)(=O)=O)cc3C)ccc3cc(Br)ccc23)c1 ?
Data returned: 31

====

# assay text: Selectivity index, ratio of CC50 for human C8166 cells to EC50 for HIV1 3B infected in human C8166 cells
# Format: toxicity, cell-based
# condition notes: HIV-1 3B infected C8166 cells, read-out: Ratio CC50/EC50
I'd appreciate it if you could supply selectivity ratio values for the items below.
Give bare numbers.

{"smiles str": "Cc1ccc(C(=O)c2c(OCC(=O)Nc3ccc(S(N)(=O)=O)cc3C)ccc3ccccc23)cc1C", "selectivity ratio": 54.2}
{"smiles str": "Cc1cc(S(N)(=O)=O)ccc1NC(=O)COc1ccc2cc(Br)ccc2c1C(=O)c1cccc(F)c1", "selectivity ratio": 2.7}

Look up selectivity ratio for the entries below, preserving their order.
1. Cc1cccc(C(=O)c2c(OCC(=O)Nc3ccc(S(N)(=O)=O)cc3C)ccc3cc(C#N)ccc23)c1
2. Cc1ccc(C)c(C(=O)c2c(OCC(=O)Nc3ccc(S(N)(=O)=O)cc3C)ccc3ccccc23)c1
3. Cc1cc(C)cc(C(=O)c2c(OCC(=O)Nc3ccc(S(N)(=O)=O)cc3C)ccc3cc(Br)ccc23)c1

Data returned:
1. 19.2
2. 4090
3. 7

Look up selectivity ratio for the entries below, preserving their order.
1. Cc1cccc(C(=O)c2c(OCC(=O)Nc3ccc(S(N)(=O)=O)cc3C)ccc3cc(Br)ccc23)c1
2. Cc1cc(S(N)(=O)=O)ccc1NC(=O)COc1ccc2ccccc2c1C(=O)c1ccccc1

Data returned:
1. 2.9
2. 642

====

# assay text: Selectivity index, ratio of CC50 for human C8166 cells to EC50 for HIV1 3B infected in human C8166 cells
# Assay type: toxicity, cell-based
# condition notes: HIV-1 3B infected C8166 cells, read-out: Ratio CC50/EC50
metric: selectivity ratio

Recorded selectivity ratio, per entry:
{"smiles str": "Cc1ccc(C(=O)c2c(OCC(=O)Nc3ccc(S(N)(=O)=O)cc3C)ccc3cc(C#N)ccc23)cc1C", "selectivity ratio": "> 4.4"}
{"smiles str": "Cc1cc(S(N)(=O)=O)ccc1NC(=O)COc1ccc(Cl)cc1C(=O)c1cc(Cl)cc(C#N)c1", "selectivity ratio": "> 563000"}

Let's switch to this compound now.
Data request: selectivity ratio for Cc1cc(S(N)(=O)=O)ccc1NC(=O)COc1ccc2cc(C#N)ccc2c1C(=O)c1cccc(Cl)c1 ?
Data returned: > 183
